Hi! I'm sharing some IC50 results obtained with 5-hydroxytryptamine receptor 2A (Homo sapiens).
Sequence (P28223 whole entry): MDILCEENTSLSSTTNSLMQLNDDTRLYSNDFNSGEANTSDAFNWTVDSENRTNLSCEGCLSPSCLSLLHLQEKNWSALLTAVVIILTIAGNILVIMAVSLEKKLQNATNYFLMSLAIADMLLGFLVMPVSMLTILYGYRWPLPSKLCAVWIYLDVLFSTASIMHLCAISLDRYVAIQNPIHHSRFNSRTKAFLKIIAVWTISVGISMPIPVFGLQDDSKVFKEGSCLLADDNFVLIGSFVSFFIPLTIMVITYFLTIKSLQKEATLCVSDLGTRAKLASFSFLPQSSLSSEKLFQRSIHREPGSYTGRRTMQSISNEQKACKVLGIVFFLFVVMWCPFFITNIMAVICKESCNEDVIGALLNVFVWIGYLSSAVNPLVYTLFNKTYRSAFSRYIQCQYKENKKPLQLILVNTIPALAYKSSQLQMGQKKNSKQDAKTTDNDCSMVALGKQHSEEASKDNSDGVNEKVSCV
Numbers only; they are read as µM.

Cc1ccc(C2=NCCN=C(NC(C)(C)C)C2)cc1: 0.011

Turning to the following compound.
Value (IC50, 5-hydroxytryptamine receptor 2A (Homo sapiens)) for record `CC(C)(C)NC1=NCCN=C(c2ccc(F)cc2F)C1` = 0.011
